experimentNotes: Stability of crystal forms in sodium phosphate/hydrochloric acid buffer pH=6.8 (37° C.)
Type: physicochemical
testConditions: pH = 6.8 buffer, 37° C., 4 h
quantity: Purity
Could you give the number and then its unit, please?

• C=CCc1cccc(/C=N/NC(=O)CN2CCCN(Cc3ccccc3)CC2)c1O [Form D, orbit azine difumarate] = 85.418%
• C=CCc1cccc(/C=N/NC(=O)CN2CCCN(Cc3ccccc3)CC2)c1O [Amorphous form, orbit azine monofumarate] = 87.266%
• C=CCc1cccc(/C=N/NC(=O)CN2CCCN(Cc3ccccc3)CC2)c1O [Form C, orbit azine difumarate] = 83.292%

Consider the record given below.
Assign Purity to the following record: C=CCc1cccc(/C=N/NC(=O)CN2CCCN(Cc3ccccc3)CC2)c1O [Form A, orbit azine monofumarate]
87.153%

Cited source: patent US10561667B2
